- SYSTEM UNDER TEST: Gastrin/cholecystokinin type B receptor (Rattus norvegicus)
- Sequence (P30553 whole entry): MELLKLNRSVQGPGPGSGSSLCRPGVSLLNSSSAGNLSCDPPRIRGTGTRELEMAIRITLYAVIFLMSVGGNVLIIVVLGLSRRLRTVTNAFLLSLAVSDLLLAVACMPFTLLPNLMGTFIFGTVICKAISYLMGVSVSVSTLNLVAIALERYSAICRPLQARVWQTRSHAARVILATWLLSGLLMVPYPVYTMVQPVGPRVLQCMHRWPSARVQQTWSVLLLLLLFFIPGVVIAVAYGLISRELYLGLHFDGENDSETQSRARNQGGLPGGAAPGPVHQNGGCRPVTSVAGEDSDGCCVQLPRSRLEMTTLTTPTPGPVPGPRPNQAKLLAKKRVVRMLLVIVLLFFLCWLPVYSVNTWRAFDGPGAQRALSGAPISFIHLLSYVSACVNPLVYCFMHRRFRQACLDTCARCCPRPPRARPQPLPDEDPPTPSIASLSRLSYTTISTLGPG
Criterion: IC50 strictly less than 20 nM. Met: label 1. Not met: label 0.

Solved cases (8 shown):
In [3]: df
Out[3]:
                                   molecule  class_assignment
0  Cc1cccc(NC(=O)NC2N=C(c3ccncc3)c3ccccc3N(CC(=O)c3ccccc3C)C2=O)c1 (centres undefined)           label 1
1  Cc1cccc(NC(=O)NC2N=C(c3ccccn3)c3ccccc3N(CC(=O)c3ccccc3C)C2=O)c1 (centres undefined)           label 1
2  Cc1cccc(NC(=O)NC2N=C(c3cnc[nH]3)c3ccccc3N(CC(=O)C(C)(C)C)C2=O)c1 (centres undefined)           label 0
3  Cc1cccc(NC(=O)NC2N=C(c3ccncc3)c3ccccc3N(CC(=O)C3CCCC3)C2=O)c1 (centres undefined)           label 0
4  Cc1cccc(NCNC2N=C(c3ccn[nH]3)c3ccccc3N(CC(=O)C(C)(C)C)C2=O)c1 (centres undefined)           label 0
5  Cc1cccc(NC(=O)NC2N=C(c3ccccn3)c3ccccc3N(CC(=O)C(C)(C)C)C2=O)c1 (centres undefined)           label 1
6  Cc1cccc(NC(=O)NC2N=C(c3ccccc3)c3ccccc3N(CC(=O)c3ccccc3C)C2=O)c1 (centres undefined)           label 1
7  Cc1cccc(NC(=O)NC2N=C(c3cccnc3)c3ccccc3N(CC(=O)C3CCCC3)C2=O)c1 (centres undefined)           label 1

Now turn to the next molecule.
Incoming: Check if IC50 falls below 20 nM for Cc1cccc(NC(=O)NC2N=C(c3ccccn3)c3ccccc3N(CC(=O)C3CCCC3)C2=O)c1 (centres undefined) .
Outgoing: label 1

Data provenance is ChEMBL document CHEMBL1128905.
